Target: human GLP-1 receptor (human, UniProt P43220 24-463)
Method summary: cell-based or functional assay
*1 amine or outer side, *2 acyl side, *3 side chain or, on linkers, in order; H or OH if unused. Where no end group is shown, it is not given here. Side-chain parts run from the residue outwards. [ ]: non-standard residue; d: D form. The star is where a group is joined. Decanoyl(10-(4-HOOC-PhO)) = O=C(O)c1ccc(OCCCCCCCCCC(=O)*)cc1; αMePhe(2-F) = C[C@](N)(Cc1ccccc1F)C(=O)O; γGlu = O=C(O)[C@H](CCC(=O)[*:2])N[*:1]; αMeY = C[C@](N)(Cc1ccc(O)cc1)C(=O)O; αMeL = CC(C)C[C@](C)(N)C(=O)O; Orn = NCCC[C@H](N)C(=O)O; AEEA = NCCOCCOCC(=O)O; Aib = CC(C)(N)C(=O)O
# strict inequality: cAMP EC50 (1.0% HSA) < 70 nM yields yes (1), everything else yields no (0)

Q: Lab note: confirm whether the reported cAMP EC50 (1.0% HSA) for this binder is below 70 nM, equality not counting. binder: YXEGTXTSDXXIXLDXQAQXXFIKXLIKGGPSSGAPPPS (Y-Aib-EGT-αMeF(2F)-TSD-4Pal-Aib-I-αMeL-LD-Orn-QAQ-Aib-Orn-FIK((2-[2-(2-Amino-ethoxy)-ethoxy]-acetyl)-Trx-(γ-Glu)-(10-(4-carboxyphenoxy)decanoyl))-αMeY-LIK(((2-[2-(2-Amino-ethoxy)-ethoxy]-acetyl)-Trx-(γ-Glu)-(10-(4-carboxyphenoxy)decanoyl))GGPSSGAPPPS-NH2)) [Example 473]
A: yes (1)

Q: Lab note: confirm whether the reported cAMP EC50 (1.0% HSA) for this binder is below 70 nM, equality not counting. binder: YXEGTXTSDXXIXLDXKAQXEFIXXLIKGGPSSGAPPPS (Y-Aib-EGT-αMeF(2F)-TSD-4Pal-Aib-I-αMeL-LD-Orn-K((2-[2-(2-Amino-ethoxy)-ethoxy]-acetyl)-Aoc-CO-(CH2)12-CO2H)AQ-Aib-EFI-(D-Glu)-αMeY-LIK(((2-[2-(2-Amino-ethoxy)-ethoxy]-acetyl)-Aoc-CO-(CH2)12-CO2H)GGPSSGAPPPS-NH2)) [Example 465]
A: no (0)

Q: Lab note: confirm whether the reported cAMP EC50 (1.0% HSA) for this binder is below 70 nM, equality not counting. binder: Y[Aib]EGT[αMePhe(2-F)]TSDV[Aib]I[αMeL]LD[Orn]IAQ[Aib]EFIK([AEEA-γGlu-Decanoyl(10-(4-HOOC-PhO))])[αMeY]LIK([AEEA-γGlu-Decanoyl(10-(4-HOOC-PhO))])GGPSSGAPPPS-NH2 [Example 381]
A: no (0)

Q: Lab note: confirm whether the reported cAMP EC50 (1.0% HSA) for this binder is below 70 nM, equality not counting. binder: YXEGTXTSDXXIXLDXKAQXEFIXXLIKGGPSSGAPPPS (Y-Aib-EGT-αMeF(2F)-TSD-4Pal-Aib-I-αMeL-LD-Orn-K((2-[2-(2-Amino-ethoxy)-ethoxy]-acetyl)-(γ-Glu)-(10-(4-carboxyphenoxy)decanoyl))AQ-Aib-EFIe-αMeY-LIK((2-[2-(2-Amino-ethoxy)-ethoxy]-acetyl)-(γ-Glu)-(10-(4-carboxyphenoxy)decanoyl))GGPSSGAPPPS-NH2) [Example 361]
A: yes (1)

Q: Lab note: confirm whether the reported cAMP EC50 (1.0% HSA) for this binder is below 70 nM, equality not counting. binder: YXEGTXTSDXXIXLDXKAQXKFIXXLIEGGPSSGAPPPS (Y-Aib-EGT-αMeF(2F)-TSD-4Pal-Aib-I-αMeL-LD-Orn-K((2-[2-(2-Amino-ethoxy)-ethoxy]-acetyl)-(γ-Glu)-CO-(CH2)10-CH3)AQ-Aib-K((2-[2-(2-Amino-ethoxy)-ethoxy]-acetyl)-(γ-Glu)-CO-(CH2)10-CH3)FI-(D-Glu)-αMeY-LIEGGPSSGAPPPS-NH2) [Example 426]
A: yes (1)

Reference for the values: patent US20230265151A1
